# measured_on: Recombinant human GST-tagged Kat6b protein (431-end)
# assay: Kat6b activity assay (TR-FRET, acetylation of biotinylated Histone-H4-derived peptide)
# assay_conditions: 30 mins at 22° C., read-out: KAT6B activity assay IC50 [mol/l] (arithmetic mean)
measured_parameter: IC50 (nM)

Here is how some compounds turned out for IC50.
{"compound": "CN(C)c1ccc2cc(C(=O)NS(=O)(=O)c3ccccc3OCCNC(=O)OC(C)(C)C)oc2c1", "IC50 [nM]": 342}
{"compound": "CCOc1ccc(C(C)C)cc1S(=O)(=O)NC(=O)c1cc2ccc(N(C)C)cc2o1", "IC50 [nM]": 16.8}
{"compound": "CCN(C)c1ccc2cc(C(=O)NS(=O)(=O)c3ccccc3-c3ccccc3)oc2c1", "IC50 [nM]": 836}
{"compound": "CCOc1cccc(F)c1S(=O)(=O)NC(=O)c1cc2ccc(N(C)C)cc2o1", "IC50 [nM]": 257}
{"compound": "CN(C)c1ccc2cc(C(=O)NS(=O)(=O)C3CCOCC3)oc2c1", "IC50 [nM]": 2680}
{"compound": "CCCOc1ccccc1S(=O)(=O)NC(=O)c1cc2ccc(N(C)C)cc2o1", "IC50 [nM]": 99.2}
{"compound": "COc1cccc(C(F)(F)F)c1S(=O)(=O)NC(=O)c1cc2ccc(N(C)C)cc2o1", "IC50 [nM]": 72.7}
{"compound": "CNc1ccc2cc(C(=O)NS(=O)(=O)c3ccccc3-c3ccccc3)oc2c1", "IC50 [nM]": 205}
{"compound": "CCN(CC)c1ccc2cc(C(=O)NS(=O)(=O)c3ccccc3-c3ccccc3)oc2c1", "IC50 [nM]": 1890}
{"compound": "CN(CC1CC1)c1ccc2cc(C(=O)NS(=O)(=O)c3ccccc3-c3ccccc3)oc2c1", "IC50 [nM]": 1420}

A. CCOc1cccc(Br)c1S(=O)(=O)NC(=O)c1cc2ccc(N(C)C)cc2o1
B. Cc1ccc(S(=O)(=O)NC(=O)c2cc3ccc(N(C)C)cc3o2)cc1
C. CN(C)c1ccc2cc(C(=O)NS(=O)(=O)c3ccccc3OC(C)(C)C)oc2c1
D. CN(C)c1ccc2cc(C(=O)NS(=O)(=O)c3cc(C(C)(C)C)ccc3OCc3ccccc3)oc2c1
E. CN(C)c1ccc2cc(C(=O)NS(=O)(=O)c3cccc4c3OCC4)oc2c1
Put these in order: smallest IC50 first, largest last. Thanks in advance for listing the labels in the requested order.
D, C, A, E, B
(D: 19.4 nM, C: 84.5 nM, A: 227 nM, E: 497 nM, B: 778 nM)
